# Test system: c-Src
# assay-info: phosphorylation enrichment, bacterial display (enrichment ratio); higher = better substrate or ligand; peptides without Tyr show the background;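 note: 11-residue human phosphosite peptides and single-mutation variants displayed on the E. coli surface, counted by deep sequencing, each peptide's frequency after selection divided by its frequency in the unselected input library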;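 note: frequency after pTyr selection over input frequency; kinase dosed for 20-30% of maximal phosphorylation in three min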
Lab note: compare phosphorylation enrichment against 0.5. Equal or greater, write yes (1). Smaller, write no (0).

Query block: In plain terms: is recorded phosphorylation enrichment at least 0.5 for KQRSDYARELE [MYH3_Y1140] ?
Result block: no (0)

Query block: Cool, now NNPAFYVLEGV [INPPL1_Y987_YF]
Result block: yes (1)

Query block: Cool, now NVVHEYSSELE [FGB_Y172_N170H]
Result block: yes (1)

Query block: Cool, now KQVEQYMSFHK [HCN1_Y417]
Result block: yes (1)

Query block: Cool, now LDAFIYNAAVL [GRIN2A_Y730_D731N]
Result block: yes (1)

Query block: Cool, now GLIPAYHWVIM [NMNAT1_Y64_R66W]
Result block: yes (1)

Query block: Cool, now GHEEFYSTHPH [LRRK2_Y1402_R1398H]
Result block: yes (1)

Query block: Cool, now FETSHYLASPD [CTNND2_Y1217_P1218L_YF]
Result block: yes (1)

Query block: Cool, now FLRKEYGGLNV [CBR3_Y81]
Result block: no (0)

Query block: Cool, now SREALYNEMDP [CACNA1A_Y794]
Result block: yes (1)

Query block: Cool, now TKGMIYGGGGG [PSME1_Y249]
Result block: yes (1)

Query block: Cool, now DRLASNLDKVR [KRT10_Y160_Y160N]
Result block: no (0)

Query block: Cool, now SNMPTYSGHFT [GRIN2A_Y1224]
Result block: yes (1)

Query block: Cool, now KICDWYQRQRP [KRT14_Y151_R148C]
Result block: no (0)

Query block: Cool, now RPSRQYATLDV [SCAMP3_Y35]
Result block: no (0)

Query block: Cool, now AEYGLYGAMVW [VSX2_Y222_R227W]
Result block: yes (1)

Query block: Cool, now KEEEDYREENN [BMS1_Y651_K652R]
Result block: yes (1)

Query block: Cool, now KKMKCYHVGKV [HARS2_Y151_R150C]
Result block: no (0)

----------
I'd appreciate it if you could supply phosphorylation enrichment values for the items below.
# measurement-target: FGFR3 (UniProt P22607)
# Sequence (P22607 whole entry, looked up): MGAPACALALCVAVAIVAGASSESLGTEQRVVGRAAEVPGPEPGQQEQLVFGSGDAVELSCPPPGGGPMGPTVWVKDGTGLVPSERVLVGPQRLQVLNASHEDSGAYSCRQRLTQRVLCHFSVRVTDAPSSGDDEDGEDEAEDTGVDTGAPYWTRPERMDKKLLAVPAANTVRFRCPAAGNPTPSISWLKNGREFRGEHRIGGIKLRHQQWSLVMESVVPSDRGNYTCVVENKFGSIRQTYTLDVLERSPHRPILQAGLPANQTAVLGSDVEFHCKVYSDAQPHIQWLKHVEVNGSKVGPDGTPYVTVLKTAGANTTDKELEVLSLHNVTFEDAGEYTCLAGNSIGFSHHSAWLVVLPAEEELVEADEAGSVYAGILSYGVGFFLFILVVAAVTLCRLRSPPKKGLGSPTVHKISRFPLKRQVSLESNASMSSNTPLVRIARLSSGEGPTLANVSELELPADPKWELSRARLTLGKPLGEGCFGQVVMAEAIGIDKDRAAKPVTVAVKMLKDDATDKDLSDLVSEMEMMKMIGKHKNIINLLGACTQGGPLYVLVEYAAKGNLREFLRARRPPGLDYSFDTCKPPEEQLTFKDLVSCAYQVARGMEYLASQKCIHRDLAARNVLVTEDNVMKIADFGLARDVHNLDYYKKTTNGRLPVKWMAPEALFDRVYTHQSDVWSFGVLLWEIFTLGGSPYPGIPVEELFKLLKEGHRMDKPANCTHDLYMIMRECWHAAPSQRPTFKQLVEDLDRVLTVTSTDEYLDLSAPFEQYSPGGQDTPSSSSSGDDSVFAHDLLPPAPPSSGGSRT
# assay-info: phosphorylation enrichment, bacterial display (enrichment ratio); higher = better substrate or ligand; peptides without Tyr show the background

Query block: Provide value of phosphorylation enrichment for this record tested with FGFR3 (UniProt P22607): EEGNPSFSSAR [MCCC2_Y520_Y520S_YF]
Result block: 0.623

Query block: Cool, now ETCLAYMEKRI [TEKT1_Y118_R119M]
Result block: 0.814

Query block: Cool, now LWPIWYRCRRP [MRGPRX1_Y130_H133R]
Result block: 0.507

Query block: Cool, now TLQSMYGCDVG [HLA-B_Y123]
Result block: 0.667

Query block: Cool, now YGGLRYGYGVL [KRTAP20-2_Y13]
Result block: 0.518

Query block: Cool, now GNHVSYYQSDG [CACNA1C_Y1757]
Result block: 0.81

Query block: Cool, now VTPVMYTFDEF [COL10A1_Y623_G618V_YF]
Result block: 0.654

Query block: Cool, now KTDVRYRSLGG [DYSF_Y1858_H1857R]
Result block: 0.472

Query block: Cool, now DGLALYTGSAL [COL6A3_Y524_S521L]
Result block: 0.723

Query block: Cool, now AELVRYFMEHH [PTPN11_Y80_Q79R_YF]
Result block: 0.471

Query block: Cool, now DNQFAYLKAII [HNF4A_Y288_E285Q_YF]
Result block: 0.702

Query block: Cool, now IFHENYNAGTY [CFI_Y421]
Result block: 0.588

Query block: Cool, now HFPFQCHRQLF [F12_Y53_Y53C_YF]
Result block: 1.4

Query block: Cool, now VTSLKYSTPPY [BRIP1_Y916_S919P]
Result block: 0.515

Query block: Cool, now PFRSIYFSSPK [MPG_Y75_YF]
Result block: 0.809

Query block: Cool, now AKLDIYKRKVE [VWA3B_Y918_N916D]
Result block: 0.382

Query block: Cool, now VRTSKYRGGGG [HBA1_Y141_L137R]
Result block: 0.618

Query block: Cool, now HRGSLYLAIEF [TEK_Y899_Y897S_YF]
Result block: 0.902

Query block: Cool, now REESTYLPLTS [ICAM3_Y527]
Result block: 1.51

Query block: Cool, now EREFKYGAHNF [OAT_Y50_YF]
Result block: 0.482

Query block: Cool, now GYEEAYSVFKK [PAFAH1B1_Y28]
Result block: 0.681

Query block: Cool, now QRAADYYSQQM [GBP6_Y333]
Result block: 1.75

Query block: Cool, now EASEQHLTKAS [NRCAM_Y739_Y739H]
Result block: 0.551

Query block: Cool, now MSRFIYSTDFF [NTRK1_Y676_D674Y_YF]
Result block: 1.27

Query block: Cool, now IHSGIYFKPES [L2HGDH_Y102_YF]
Result block: 0.744

Query block: Cool, now FSCLPCGRLAY [SLC52A2_Y305_Y305C]
Result block: 0.54

Query block: Cool, now RVGNMYVRGLS [ABCG8_Y209]
Result block: 0.682

Query block: Cool, now SVFNNYIQTLG [CTNND1_Y174_S171F]
Result block: 0.528

Query block: Cool, now EACRSYSHVVL [CHST6_Y168]
Result block: 0.701

Query block: Cool, now RNFVRYVQGLK [VWF_Y1400]
Result block: 0.445

Query block: Cool, now KVDKEYEVRVR [GHR_Y226]
Result block: 0.473

Query block: Cool, now AVSHRYDLGGL [QPRT_Y162_A158V]
Result block: 0.42

Query block: Cool, now SPRDTYSDRSG [CTPS1_Y567]
Result block: 0.438

Query block: Cool, now LPEVSYVKAID [GLRA1_Y307_K304E]
Result block: 0.1

Query block: Cool, now QEGPEYWDQNT [HLA-A_Y83_E87N]
Result block: 1.14

Query block: Cool, now TEAGDYKLCFD [TMED1_Y103]
Result block: 1.02

Query block: Cool, now ISSLRYKLLEE [TRPC6_Y896_E897K]
Result block: 0.549

Query block: Cool, now TPIYPYLLPKS [PLD2_Y580_T577I]
Result block: 0.698

Query block: Cool, now SVVVPYEPTEV [TP53_Y220_P223T]
Result block: 0.742

Query block: Cool, now DAGTDYVGISC [FREM2_Y2061_R2066C]
Result block: 0.959

----------
# measurement-target: Jak2 (UniProt O60674)
# Sequence (O60674 whole entry, looked up): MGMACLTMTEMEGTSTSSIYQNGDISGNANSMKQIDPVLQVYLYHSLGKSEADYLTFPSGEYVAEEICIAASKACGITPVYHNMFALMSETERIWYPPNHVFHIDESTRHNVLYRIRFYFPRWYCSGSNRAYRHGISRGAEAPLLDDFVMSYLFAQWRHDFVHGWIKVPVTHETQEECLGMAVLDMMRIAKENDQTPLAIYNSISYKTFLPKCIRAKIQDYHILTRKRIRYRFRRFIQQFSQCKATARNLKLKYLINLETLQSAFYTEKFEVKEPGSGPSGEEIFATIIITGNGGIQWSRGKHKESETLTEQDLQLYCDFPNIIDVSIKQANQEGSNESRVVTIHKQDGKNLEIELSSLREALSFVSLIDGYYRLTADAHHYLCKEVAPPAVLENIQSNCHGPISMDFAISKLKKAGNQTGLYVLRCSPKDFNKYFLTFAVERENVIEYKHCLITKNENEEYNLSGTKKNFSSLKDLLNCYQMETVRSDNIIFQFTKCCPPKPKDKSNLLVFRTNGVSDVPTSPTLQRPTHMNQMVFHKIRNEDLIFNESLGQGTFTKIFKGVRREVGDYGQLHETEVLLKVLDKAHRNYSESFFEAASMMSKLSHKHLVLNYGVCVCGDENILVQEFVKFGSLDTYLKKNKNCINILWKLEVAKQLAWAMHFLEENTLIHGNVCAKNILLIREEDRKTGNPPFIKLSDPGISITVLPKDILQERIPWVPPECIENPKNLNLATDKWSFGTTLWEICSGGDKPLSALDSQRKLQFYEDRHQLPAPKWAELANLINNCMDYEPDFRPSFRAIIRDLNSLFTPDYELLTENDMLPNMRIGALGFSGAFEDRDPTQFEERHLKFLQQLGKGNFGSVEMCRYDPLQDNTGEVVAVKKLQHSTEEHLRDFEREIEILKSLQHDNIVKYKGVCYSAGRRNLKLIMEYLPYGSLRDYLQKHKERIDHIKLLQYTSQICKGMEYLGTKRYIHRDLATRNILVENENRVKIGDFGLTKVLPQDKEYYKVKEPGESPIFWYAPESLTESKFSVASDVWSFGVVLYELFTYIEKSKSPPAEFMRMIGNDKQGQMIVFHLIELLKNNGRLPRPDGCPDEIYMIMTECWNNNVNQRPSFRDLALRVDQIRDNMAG
# assay-info: phosphorylation enrichment, bacterial display (enrichment ratio); higher = better substrate or ligand; peptides without Tyr show the background
Lab note: compare phosphorylation enrichment against 0.7. Equal or greater, write Criterion met. Smaller, write Criterion not met.

Query block: In plain terms: is recorded phosphorylation enrichment at least 0.7 for DVELLYPVKEK [EPHX1_Y283] ?
Result block: Criterion met

Query block: Cool, now KKLEVYQSIAD [MYBPC3_Y548]
Result block: Criterion met

Query block: Cool, now TMEDSYRKQVV [KRAS_Y40_I36M]
Result block: Criterion not met

Query block: Cool, now IGKAGYTDKVV [ENO1_Y236]
Result block: Criterion not met

Query block: Cool, now EFKKHYGFSLF [ANXA3_Y295_YF]
Result block: Criterion met

----------
# measurement-target: FGFR1 (UniProt P11362)
# Sequence (P11362 whole entry, looked up): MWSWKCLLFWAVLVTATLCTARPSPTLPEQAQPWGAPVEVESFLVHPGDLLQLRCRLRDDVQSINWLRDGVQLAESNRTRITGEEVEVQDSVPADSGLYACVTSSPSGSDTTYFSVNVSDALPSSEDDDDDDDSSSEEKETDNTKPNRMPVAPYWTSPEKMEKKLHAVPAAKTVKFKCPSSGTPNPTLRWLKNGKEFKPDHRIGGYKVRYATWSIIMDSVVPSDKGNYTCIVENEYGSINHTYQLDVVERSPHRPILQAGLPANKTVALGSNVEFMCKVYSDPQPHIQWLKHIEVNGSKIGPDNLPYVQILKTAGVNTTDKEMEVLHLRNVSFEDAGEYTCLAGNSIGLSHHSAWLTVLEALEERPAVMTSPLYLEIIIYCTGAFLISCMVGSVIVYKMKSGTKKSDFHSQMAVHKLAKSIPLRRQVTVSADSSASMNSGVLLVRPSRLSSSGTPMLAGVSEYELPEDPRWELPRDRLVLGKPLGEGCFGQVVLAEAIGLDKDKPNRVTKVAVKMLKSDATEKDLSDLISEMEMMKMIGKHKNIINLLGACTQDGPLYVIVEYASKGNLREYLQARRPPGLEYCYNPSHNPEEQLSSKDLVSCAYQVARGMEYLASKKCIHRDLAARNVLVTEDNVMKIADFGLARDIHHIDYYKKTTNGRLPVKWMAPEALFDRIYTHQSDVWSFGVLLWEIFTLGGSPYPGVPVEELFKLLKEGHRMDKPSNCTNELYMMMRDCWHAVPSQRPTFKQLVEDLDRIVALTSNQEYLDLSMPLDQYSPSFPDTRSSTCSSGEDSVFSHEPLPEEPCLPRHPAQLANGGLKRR
# assay-info: phosphorylation enrichment, bacterial display (enrichment ratio); higher = better substrate or ligand; peptides without Tyr show the background
Lab note: compare phosphorylation enrichment against 0.7. Equal or greater, write yes. Smaller, write no.

Query block: In plain terms: is recorded phosphorylation enrichment at least 0.7 for YDEYRYRSVIK [CFTR_Y517] ?
Result block: no

Query block: Cool, now SRLSAYPALEG [CD5_Y465_H461R]
Result block: no

Query block: Cool, now ISSLRYKLLEE [TRPC6_Y896_E897K]
Result block: no

Query block: Cool, now MKGDYYRYLAE [YWHAG_Y131]
Result block: yes

Query block: Cool, now QNVADYMRCLM [RPL5_Y207_Y210C]
Result block: yes

Query block: Cool, now LFDPDYMKVIL [CYP4A22_Y104_YF]
Result block: yes

Query block: Cool, now YRQLPYCPSVE [CTNND2_Y508_Q507P]
Result block: yes

----------
# measurement-target: MERTK (UniProt Q12866)
# Sequence (Q12866 whole entry, looked up): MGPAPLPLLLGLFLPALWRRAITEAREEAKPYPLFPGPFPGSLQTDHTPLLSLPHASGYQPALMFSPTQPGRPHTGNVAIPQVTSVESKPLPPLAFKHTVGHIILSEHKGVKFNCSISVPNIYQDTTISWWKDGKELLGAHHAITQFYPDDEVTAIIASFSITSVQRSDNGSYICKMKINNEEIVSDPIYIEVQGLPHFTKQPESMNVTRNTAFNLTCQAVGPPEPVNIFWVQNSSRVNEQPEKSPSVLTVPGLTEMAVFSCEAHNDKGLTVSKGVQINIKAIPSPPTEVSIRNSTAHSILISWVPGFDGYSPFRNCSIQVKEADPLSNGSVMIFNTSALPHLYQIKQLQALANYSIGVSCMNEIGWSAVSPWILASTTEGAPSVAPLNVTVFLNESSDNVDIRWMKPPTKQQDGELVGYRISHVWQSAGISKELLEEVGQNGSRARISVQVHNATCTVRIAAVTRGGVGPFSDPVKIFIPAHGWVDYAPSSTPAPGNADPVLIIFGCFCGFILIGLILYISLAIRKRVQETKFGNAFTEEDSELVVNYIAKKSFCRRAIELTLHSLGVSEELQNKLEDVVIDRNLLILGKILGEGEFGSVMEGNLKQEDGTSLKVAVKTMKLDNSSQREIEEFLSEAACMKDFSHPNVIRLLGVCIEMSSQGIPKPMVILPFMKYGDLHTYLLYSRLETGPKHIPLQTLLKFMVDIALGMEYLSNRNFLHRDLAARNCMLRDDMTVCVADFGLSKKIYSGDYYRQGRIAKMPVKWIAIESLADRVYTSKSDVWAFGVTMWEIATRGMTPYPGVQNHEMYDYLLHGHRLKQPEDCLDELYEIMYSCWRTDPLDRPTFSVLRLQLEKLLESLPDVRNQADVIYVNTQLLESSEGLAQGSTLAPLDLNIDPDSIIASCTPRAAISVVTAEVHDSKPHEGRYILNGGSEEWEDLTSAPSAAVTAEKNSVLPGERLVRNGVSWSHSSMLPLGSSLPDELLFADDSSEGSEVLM
# assay-info: phosphorylation enrichment, bacterial display (enrichment ratio); higher = better substrate or ligand; peptides without Tyr show the background
measured-metric: phosphorylation enrichment

Query block: // phosphorylation enrichment lookup, key: AEYGLYGAMVW [VSX2_Y222_R227W]
Result block: 2.66

Query block: Cool, now TLQSMYGCDVG [HLA-B_Y123]
Result block: 0.406

Query block: Cool, now FHRQLYHKCTH [F12_Y58_YF]
Result block: 0.385

Query block: Cool, now MCITQYERESQ [PRNP_Y218]
Result block: 0.485

Source: the supplement of paper PMC10065799
